- Experimental Protocol: PSAC antagonists in infected red cells, primary screen, cell-based, P. falciparum Indochina, OD700, 2 h (AID 1155);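 note: lysis reports solute entry through the parasite surface anion channel PSAC; channel blockers reduce lysis of infected cells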
- Cond: P. falciparum Indochina infected erythrocytes, osmotic lysis OD700; higher = more signal, called active from +8 up or from −8 down
Property: z-score; scope: individual compounds
Write the value as a bare number.

>  <Compound>
CCOC(=O)C[C@H]1[C@H](OC(=O)Cc2ccc3c(c2)OCO3)[C@@H](NC(=O)CC(C)C)c2cc(OCCCO)ccc2N1C(=O)Cc1ccc(OC)cc1

>  <Test Result>
-0.537

$$$$
>  <Compound>
O=C1OCCC/C=C\[C@H]2OC34C=CCN(CCN5CCOCC5)C(=O)[C@H]3N(CCCCCCO)C(=O)[C@@H]4C12 (some centres not stated)

>  <Test Result>
-0.652

$$$$
>  <Compound>
CN1C(=O)C2C=CC(C(O)c3cccc4ccccc34)N(N3CCCCC3)C2C1=O (configuration not stated)

>  <Test Result>
0.958

$$$$
>  <Compound>
CN(C)CCCNC(=O)[C@@]1(c2ccc([N+](=O)[O-])cc2)CC(=O)N(CC23CC4CC(CC(C4)C2)C3)[C@@H]1c1ccc(CO)cc1I

>  <Test Result>
2.32

$$$$
>  <Compound>
CCCC[C@@H](O)C1=C(COc2ccccc2)C[C@H]2C(=O)N(C)C(=O)[C@H]2[C@H]1CO

>  <Test Result>
-0.35

$$$$
>  <Compound>
COCCOC(=O)N1C(=O)[C@@]2(c3cc(C#CC4=CCCCC4)ccc31)[C@H](C(=O)N1CCCCCCC1)[C@H]1C(=O)O[C@H](c3ccccc3)[C@H](c3ccccc3)N1[C@@H]2c1ccc(O)cc1

>  <Test Result>
-1.2

$$$$

Would you kindly share the measured z-score for C=CCN1C(=O)[C@@]2(CCS(=O)(=O)c3ccccc3)N=C(c3ccc(OCCCO)cc3)O[C@H]2c2ccccc21 ?
25.2

---

- Experimental Protocol: small-molecule binders of probe aLefty1, primary screen, biochemical, small-molecule microarray, 635/667 nm fluorescence (AID 1153);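 note: score merges spot fluorescence with signal-to-noise ratio from the scanned slide images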
- Cond: higher = more signal
Parameter: composite z-score. Scope: all listed entries.
Number only, please.

In the examples that follow, each entry is paired with its recorded composite z-score.
>  <Compound>
COc1ccc([Si](C)(C)[C@@H]2[C@@H](CC(=O)N(CCO)Cc3ccccc3)O[C@]3(C(=O)N(c4ccccc4)c4ccccc43)[C@H]2C)cc1

>  <Assay Metric>
composite z-score

>  <Test Result>
0.201

$$$$
>  <Compound>
C=C[C@@H](OC)[C@H](OC(=O)Nc1ccc(SC)cc1)c1ccc(O)c(F)c1

>  <Assay Metric>
composite z-score

>  <Test Result>
0.44

$$$$
>  <Compound>
C=CCNC(=O)[C@@H]1[C@H]2C(=O)O[C@H](c3ccccc3)[C@H](c3ccccc3)N2[C@H](c2ccc(O)cc2)[C@@]12C(=O)N(C(=O)OCCOC)c1ccc(C#CC3(O)CCCCCC3)cc12

>  <Assay Metric>
composite z-score

>  <Test Result>
-0.639

$$$$
>  <Compound>
O=C1OCC=C[C@H]2OC34C=CCN(Cn5nnc6ccccc65)C(=O)[C@H]3N(CCCO)C(=O)[C@@H]4[C@@H]12 (some centres undefined)

>  <Assay Metric>
composite z-score

>  <Test Result>
0.0861

$$$$
>  <Compound>
O=C1O[C@@H](c2ccccc2)[C@@H](c2ccccc2)N2[C@@H](c3ccccc3OCCO)[C@]3(C(=O)Nc4ccc(C#CCCO)cc43)[C@@H](C(=O)N3CCCCCCC3)[C@H]12

>  <Assay Metric>
composite z-score

>  <Test Result>
3.18

$$$$

Query (compound): COC(=O)[C@@]1(Cc2ccccc2)[C@H]2c3cc(C(=O)N(C)C)n(CCc4ccc(O)c(OC)c4)c3C[C@H]2CN1C(=O)c1ccccc1 ; field requested: composite z-score
1.11

Also CCOC(=O)C1=C[C@@H](c2ccccc2)N(S(=O)(=O)c2ccc(C)cc2)[C@H]1c1ccccc1Cl ?
0.138
